The reported numbers originate from patent US20170066831A1.

- MEASURED ON: T1, human ST2L extracellular domain with C-terminal His6 tag (human, UniProt Q01638 19-328)
- T1 construct: also called huST2L-ECD; ST2L-ECD
- T1 sequence: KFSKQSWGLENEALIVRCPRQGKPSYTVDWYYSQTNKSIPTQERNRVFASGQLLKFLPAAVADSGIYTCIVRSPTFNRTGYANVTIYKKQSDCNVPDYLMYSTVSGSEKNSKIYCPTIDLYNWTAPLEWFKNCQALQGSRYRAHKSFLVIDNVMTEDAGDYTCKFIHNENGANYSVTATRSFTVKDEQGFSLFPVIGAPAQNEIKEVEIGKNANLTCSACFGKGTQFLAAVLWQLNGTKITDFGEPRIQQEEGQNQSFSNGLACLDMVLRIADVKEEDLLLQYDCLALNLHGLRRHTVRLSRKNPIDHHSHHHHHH
- TEST: SPR, mAb captured, ST2L-ECD in solution
OBSERVED PROPERTY: Kd

Known results for binders:
- BINDER: "STLM210 (antibody, V domains shown, frameworks VH3-23 / Vk-L6) VH: EVQLLESGGGLVQPGGSLRLSCAASGFTFSDDAMIWVRQAPGKGLEWVSYIGGNGGTTYYADSVKGRFTISRDNSKNTLYLQMNSLRAEDTAVYYCARDPWSTEGSFFVLDYWGQGTLVTVSS VL: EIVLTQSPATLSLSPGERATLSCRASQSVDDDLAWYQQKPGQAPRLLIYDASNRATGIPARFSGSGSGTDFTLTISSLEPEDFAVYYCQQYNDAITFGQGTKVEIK"
  Kd: "19 pM"
- BINDER: "STLM229 (antibody, V domains shown, VH STLH201 + VL STLL275) VH: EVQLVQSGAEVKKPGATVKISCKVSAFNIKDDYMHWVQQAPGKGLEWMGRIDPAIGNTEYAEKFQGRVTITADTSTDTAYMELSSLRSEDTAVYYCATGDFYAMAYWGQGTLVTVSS VL: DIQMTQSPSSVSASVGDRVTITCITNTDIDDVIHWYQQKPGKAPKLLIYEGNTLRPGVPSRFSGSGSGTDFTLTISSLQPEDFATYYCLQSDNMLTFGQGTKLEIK"
  Kd: "35 pM"

Could you now consider this next binder?
Given STLM123 (antibody, V domains shown, frameworks VH3-23 / Vk-L6) VH: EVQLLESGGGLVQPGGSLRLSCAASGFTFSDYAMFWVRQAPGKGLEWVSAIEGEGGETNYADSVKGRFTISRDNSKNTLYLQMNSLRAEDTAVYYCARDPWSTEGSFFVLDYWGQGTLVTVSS VL: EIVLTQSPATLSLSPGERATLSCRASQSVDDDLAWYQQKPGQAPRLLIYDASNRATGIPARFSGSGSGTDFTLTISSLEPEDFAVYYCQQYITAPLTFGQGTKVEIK , state its recorded Kd.
15 pM
